Reference source: patent US20060089371A1

reportedMetric: melting point

Would you please look over these solved cases?
molecule	measuredValue
COc1cccc(COc2ccc(-c3cc(NC(Cc4ccccc4)C(=O)O)ncn3)cc2)c1 (stereo not drawn)	90 to 93 °C
CSCCC(Nc1cc(-c2ccc(OCc3ccccc3)cc2)ncn1)C(=O)O (stereo not drawn)	210 °C
O=C(O)C(Cc1ccccn1)Nc1cc(-c2ccc(OCC3CC3)cc2)ncn1 (stereo not drawn)	105 to 107 °C
CCC(C)C(Nc1cc(-c2ccc(OCc3ccccc3)cc2)ncn1)C(=O)O (stereo not drawn)	56 °C
O=C(O)C(Cc1ccccc1)Nc1cc(-c2ccc(OCCn3cccc3)cc2)ncn1 (stereo not drawn)	209 to 211 °C

stdin: What value of melting point has been reported for the following molecule? O=C(O)C(CC(F)(F)F)Nc1cc(-c2ccc(OCc3ccccc3)cc2)ncn1 (stereo not drawn)
stdout: 156 to 158 °C
